# selectivity ratio per entry
# experimental details: Selectivity ratio of pEC50 for African green monkey Vero cells to pEC50 for Trypanosoma cruzi amastigote forms infected in African green monkey Vero cells
# Type: toxicity

chem smiles: COc1cc(Nc2nc(C)cc(N3CCOCC3)n2)ccc1F
endpoint value: > 6

chem smiles: Cc1cc(N(C)C)nc(NC2CCN(C(=O)Cc3ccc(F)cc3F)CC2)n1
endpoint value: > 16

chem smiles: Cc1cc(N(C)C)nc(Nc2ccc(C(=O)N3CCCCC3)cc2)n1
endpoint value: > 25

chem smiles: COc1cc(OC)cc(C(=O)Nc2ccc(Nc3nc(C)cc(N(C)C)n3)cc2)c1
endpoint value: 40

chem smiles: COc1cc(Nc2nc(CO)cc(N(C)C)n2)ccc1F
endpoint value: > 6

compound COc1cc(Nc2nc(N(C)C)cc(C(F)(F)F)n2)ccc1F , selectivity ratio observed: > 2

Where do the numbers come from? From ChEMBL document CHEMBL4229528.
